The reported measurements were obtained from ChEMBL document CHEMBL1201862.

tested on: SNB-19; assay: NCI tumour cell line growth inhibition, 48 h
Activity calls are given as the source filed them. Cut-off read from the data, not from the text of the source: active = GI50 up to about 1.1 µM and inactive = higher.
READOUT_KIND: GI50

MOLECULE	READOUT_KIND	MEAS_VALUE
O=[N+]([O-])/C=C/c1cn(CCCCCCCCn2cc(/C=C/[N+](=O)[O-])c3ccccc32)c2ccccc12	GI50	> 10 µM (inactive)
O=C(O)C1CC2C3CCC2C1C3=O (stereo unspecified)	GI50	> 100 µM (inactive)
CC(C)N(C(=O)C12C3C4C5C3C1(C#N)C5C42)C(C)C (stereo unspecified)	GI50	> 100 µM (inactive)
COc1ccc(-c2cc(=O)c3c(OC)c(O)c(OC)cc3o2)cc1	GI50	58.7 µM (inactive)
Nc1c(C(=O)c2ccc(Cl)cc2)[nH]c(Nc2ccc(Cl)cc2)c1C(=S)Nc1ccccc1	GI50	4.36 µM (inactive)
CCOC(=O)/C=C(/C(=O)OCC)n1ccc(=O)n(CC(=O)OCC)c1=O	GI50	10.8 µM (inactive)
O=C1c2sc(-c3ccc(F)cc3)cc2-n2cccc21	GI50	16.7 µM (inactive)
COC(=O)[C@@H]1c2cc3c(c(O)c2[C@@H](OC2OC(C)C(OC)C(C)(OC)C2OC)C[C@]1(C)O)C(=O)c1c(O)cc2c(c1C3=O)O[C@H]1O[C@]2(C)[C@H](O)[C@@H](N(C)C)[C@@H]1O (stereo partly specified)	GI50	0.00502 µM (active)
CN(CCN(C)CCN(C)C(=O)Cc1ccc(Cl)c(Cl)c1)CCN1CCCC1	GI50	39 µM (inactive)
N#CC(O)CCOCc1ccccc1 (stereo unspecified)	GI50	> 100 µM (inactive)
Cc1ccc([N+](=O)[O-])cc1S(=O)(=O)Nc1ccc(C2=NN(c3ccc([N+](=O)[O-])cc3[N+](=O)[O-])C(c3ccccc3)C2)cc1 (stereo unspecified)	GI50	17.1 µM (inactive)

====

GI50 for assorted compounds
system: HCT-116; experiment: NCI tumour cell line growth inhibition, 48 h
Calls of active or inactive are those of the source. Rule as the data show it: active = GI50 up to about 1.1 µM and inactive = higher.
READOUT_KIND: GI50

> print(dat)
                                   compound           meas.value
1  COC(=O)[C@@]1(Cc2ccc(OC(C)=O)cc2)Cc2cc3ccccc3n2N1     35 µM (inactive)
2  O=C(c1cccs1)N(C(=S)N1CCN(c2ccccc2)CC1)c1ccccc1  > 100 µM (inactive)
3  CC1=C(O)C(=O)C=C2C1=CC=C1[C@@]2(C)CC[C@@]2(C)C3C[C@@H](C)C(=O)[C@@H](O)[C@]3(C)CC[C@]12C (stereo partly drawn)   1.72 µM (inactive)

====

GI50 for assorted compounds
tested on: NCI-H522; assay: NCI tumour cell line growth inhibition, 48 h
Activity calls are given as the source filed them. Rule as the data show it: active = GI50 up to about 1.1 µM and inactive = higher.
READOUT_KIND: GI50

> print(dat)
                                    compound           meas.value
 1  CCOP1(=O)C=C(C)C(=C(Cl)Cl)C(C)=C1 (centres undefined)   3.58 µM (inactive)
 2  Nc1c(C(=O)c2ccc(Cl)cc2)[nH]c(Nc2ccc(Cl)cc2)c1C(=S)Nc1ccccc1   4.83 µM (inactive)
 3  Fc1cccc(CSc2ncnc3c2ncn3C2CCCS2)c1 (centres undefined)   15.1 µM (inactive)
 4  Nc1ccc(C(=O)Nn2c(-c3ccccc3)nc3ccccc3c2=O)cc1  > 100 µM (inactive)
 5           Cc1ccc(-n2cnc3c(N)nc(N)nc32)cc1  > 100 µM (inactive)
 6   CC1(C)Oc2ccccc2OC1O (centres undefined)  > 100 µM (inactive)
 7  Cc1ccc(-c2nnc3s/c(=C\c4ccc(N(C)C)cc4)c(=O)n23)cc1  > 100 µM (inactive)
 8  O=C1/C(=C/c2cccs2)N=C(c2ccccc2)N1C1Nc2cc3c(cc2S1)NC(N1C(=O)/C(=C/c2cccs2)N=C1c1ccccc1)S3 (centres undefined)   13.4 µM (inactive)
 9  CN(CCN(C)CCN(C)C(=O)Cc1ccc(Cl)c(Cl)c1)CCN1CCCC1   20.6 µM (inactive)
10                 O=C(O)c1cccc(CN2CCCCC2)c1  > 100 µM (inactive)
11     COc1ccc2nc3cccc(C(=O)NCCN(C)C)c3nc2c1   2.73 µM (inactive)
12  CN(/N=C/c1cccc2cccnc12)c1ccc([N+](=O)[O-])cc1[N+](=O)[O-]   16.4 µM (inactive)
13          O=C(CCc1ccc(O)c(O)c1)OCCc1ccccc1    3.7 µM (inactive)
14  CC1=Nc2ccccc2C12C(c1ccccc1)C(c1ccccc1)C(=O)N1c3ccccc3CC12 (centres undefined)  > 100 µM (inactive)
15  CN1CCN(Cc2nc3cccc4c3c([n+]2[O-])-c2ccccc2-4)CC1   14.3 µM (inactive)
16                   CCc1nnc(CC)n1NCCCC(=O)O  > 100 µM (inactive)
17  CC(=O)N1C/C(=C\c2ccccc2)C(=O)/C(=C/c2ccccc2)C1   12.3 µM (inactive)
18  COc1cc(C2C(C#N)=C(N)OC3=C2CCS(=O)(=O)c2ccc(C)cc23)cc(OC)c1OC (centres undefined)  > 100 µM (inactive)
19  CCC(=O)OC1CCn2c1nc1c2C(=O)C(C)=C(NC(C)=O)C1=O (centres undefined)   1.54 µM (inactive)

====

tested on: Malme-3M; experiment: NCI tumour cell line growth inhibition, 48 h
Calls of active or inactive are those of the source. Cut-off read from the data, not from the text of the source: active = GI50 up to about 1.1 µM and inactive = higher.
GI50 for assorted compounds
READOUT_KIND: GI50

> print(dat)
                                    compound           meas.value
 1  O=C1/C(=N/N=C(c2ccccc2)c2ccccc2)c2ccccc2-c2ccccc21   78.5 µM (inactive)
 2      CCOC(=O)C1=C(c2ccccc2)N(C)c2ccccc2S1   40.6 µM (inactive)
 3   CCCC(=O)Oc1ccc2c(C)cc(=O)oc2c1OC(=O)CCC   24.3 µM (inactive)
 4             COc1ccc2nc(-c3ccc(O)cc3)cn2c1  > 100 µM (inactive)
 5                    [N-]=[N+]=CC(=O)OCCCCl  > 100 µM (inactive)
 6             O=C1C=CC(=O)c2c(O)nc(CBr)nc21  > 100 µM (inactive)
 7  CC1/C(=N\O)CC(c2ccccc2)N(C)C1c1ccccc1 (stereo unspecified)   80.9 µM (inactive)
 8  Nc1ccc(C(=O)Nn2c(-c3ccccc3)nc3ccccc3c2=O)cc1  > 100 µM (inactive)
 9  Cc1[nH]c2c(c1Cc1ccccc1)C1=NC=C(O)NN1C=N2  > 100 µM (inactive)
10   CC(=O)OCCCCn1cnc2c(Cl)nc(Nc3ccccc3)nc21  > 100 µM (inactive)
11  O=C(CC(=O)c1cccc2ccccc12)C(=O)Nc1ccc(Cl)cc1  > 100 µM (inactive)

====

test system: OVCAR-3; assay: NCI tumour cell line growth inhibition, 48 h
Calls of active or inactive are those of the source. Rule as the data show it: active = GI50 up to about 1.1 µM and inactive = higher.
READOUT_KIND: GI50

> print(dat)
                                   compound  readout.kind           meas.value
1              Cn1c(S)nc2c(Cl)cc(Cl)cc2c1=O          GI50  > 100 µM (inactive)
2              CCOC(=O)c1nc2ccccc2n(CC)c1=O          GI50  > 100 µM (inactive)
3  CCC12CCCN(Cc3ccccc3)C1c1c(n(C)c3ccccc13)CC2 (stereo not drawn)          GI50   60.8 µM (inactive)

====

test system: DU-145; assay: NCI tumour cell line growth inhibition, 48 h
Calls of active or inactive are those of the source. Rule as the data show it: active = GI50 up to about 1.1 µM and inactive = higher.
Classes used: 1.0 = active, 0.0 = inactive

> print(dat)
                                    compound  group.label
 1  Cc1ccc(Nc2n[nH]c(NS(=O)(=O)c3cc(C)c(Cl)cc3S)n2)cc1          0.0
 2  CC(C)CC(NC(=O)C(CCI)Cc1ccccc1)C(=O)Nc1ccccc1 (centres undefined)          0.0
 3  CC(=O)Oc1ccc2c(c1)CC[C@@H]1C2[C@@H](O[N+](=O)[O-])C[C@@]2(C)C1CC[C@@H]2O (some centres undefined)          0.0
 4  COC(=O)[C@]12CC[C@H]3CN(C(=O)OCc4ccccc4)[C@H]([C@H]31)[C@H](c1ccco1)N2          0.0
 5              COc1ccccc1-c1nc(O)c2ccccc2n1          0.0
 6  Cc1ccc(Nc2nnc(-c3ccc4c(c3)OCO4)o2)c(C)c1          0.0
 7  CC(C)(Br)C(Br)CCC1(C2CO2)CO1 (centres undefined)          0.0
 8  N#Cc1c(N)nc2c(C#N)c(N)cc3c2c1Oc1ccccc1-3          0.0
 9  COC(=O)[C@@]1(Cc2ccc(OC(C)=O)cc2)Cc2cc3ccccc3n2N1          0.0
10       O=C1/C(=C/c2ccco2)NC(=S)N1CN1CCOCC1          0.0
11  CC[C@@H]1CN(C)[C@H]2Cc3c([nH]c4ccccc34)C(=O)C[C@H]1C2C(=O)OC (some centres undefined)          0.0
12  CCCC(=O)O[C@H]1C=C2C[C@@]34SS[C@]5(CC6=C[C@H](OC(C)=O)[C@@H]7O[C@@H]7[C@H]6N5C3=O)C(=O)N4[C@@H]2[C@H]2O[C@H]21          1.0
13  COc1c(-c2nc3ccc(N4CCN(C)CC4)nc3[nH]2)cc(OC)c2c1nc(CCl)n2C          0.0
14  CCN(CC)CCO/N=C1\CC[C@H]2[C@@H]3CC=C4C[C@@H](O)CC[C@]4(C)[C@H]3CC[C@]12C          0.0
